# Assayed target: Adenosine receptor A1 (Rattus norvegicus)
# Sequence (whole entry): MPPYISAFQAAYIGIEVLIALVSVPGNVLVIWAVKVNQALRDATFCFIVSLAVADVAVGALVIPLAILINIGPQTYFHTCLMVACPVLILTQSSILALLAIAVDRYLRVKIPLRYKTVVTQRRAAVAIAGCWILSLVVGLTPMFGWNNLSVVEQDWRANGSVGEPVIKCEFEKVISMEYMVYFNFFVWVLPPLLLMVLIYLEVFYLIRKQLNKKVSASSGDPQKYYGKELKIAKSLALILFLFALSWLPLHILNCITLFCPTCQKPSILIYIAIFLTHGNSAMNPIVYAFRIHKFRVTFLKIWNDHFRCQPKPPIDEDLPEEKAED
# Experiment description: GTP shift ratio of the apparent Ki values in the presence and absence of GTP.
Test readout: Ratio

Here are 2 molecules together with their reported answers.
Molecule | Assayed target | Test readout | Obs value
Nc1ncnc2c1ncn2[C@@H]1O[C@H](CO)C[C@H]1O | Adenosine receptor A1 (Rattus norvegicus) | Ratio | 2.1
O=C(CCCCc1ccccc1)N[C@H]1C(CO)O[C@@H](n2cnc3c(NC4CCCC4)ncnc32)[C@@H]1O (single isomer, unassigned) | Adenosine receptor A1 (Rattus norvegicus) | Ratio | 0.83

A: [N-]=[N+]=N[C@@H]1[C@@H](O)[C@H](n2cnc3c(NC4CCCC4)ncnc32)O[C@@H]1CO
B: Cc1ccc(C(=O)N[C@H]2C(CO)O[C@@H](n3cnc4c(NC5CCCC5)ncnc43)[C@@H]2O)cc1C (single isomer, unassigned)
Which of the two items, A and B , has the greater recorded Ratio? Reply briefly: the label of your chosen item.
A
(A: 1.4, B: 0.73)
